pIC50: recorded values
- Target Or System: UniProtKB P34972
- Test: Antagonist activity against CB2R (unknown origin) CHO cells stably expressing Galpha16 assessed as inhibition of CP55940-induced increase in intracellular calcium level pre-treated 10 mins before CP55940 stimulation by microplate reader based assay
pIC50: −log10 of the molar value.
Property Measured: pIC50

{"Input Smiles": "CCCCCN1C(=O)/C(=C/NC2CCCCC2)C(=O)c2cc(OC)cc(C)c21", "Property Measured": "pIC50", "Limit Operator": "=", "Endpoint Result": 7.03}
{"Input Smiles": "CCCCCN1C(=O)/C(=C/NC2CCCCC2)C(=O)c2ccc(Cl)cc21", "Property Measured": "pIC50", "Limit Operator": "<", "Endpoint Result": 5.00}
{"Input Smiles": "CCCCCN1C(=O)/C(=C/NC2CCCCC2)C(=O)c2cc(C(F)(F)F)ccc21", "Property Measured": "pIC50", "Limit Operator": "<", "Endpoint Result": 5.00}
{"Input Smiles": "CCCCCN1C(=O)/C(=C/NC2CCCCC2)C(=O)c2cc(OC)cc(OC)c21", "Property Measured": "pIC50", "Limit Operator": "<", "Endpoint Result": 5.00}
{"Input Smiles": "CCCCCN1C(=O)/C(=C/NC23CC4CC(CC(C4)C2)C3)C(=O)c2cc(OC)cc(C)c21", "Property Measured": "pIC50", "Limit Operator": "=", "Endpoint Result": 7.34}
{"Input Smiles": "CCCCCN1C(=O)/C(=C/NC2CCCCC2)C(=O)c2ccc(OC)cc21", "Property Measured": "pIC50", "Limit Operator": "=", "Endpoint Result": 6.71}
{"Input Smiles": "CCCCCN1C(=O)/C(=C/NC2CCCCC2)C(=O)c2cc(OC(F)(F)F)ccc21", "Property Measured": "pIC50", "Limit Operator": "<", "Endpoint Result": 5.00}
{"Input Smiles": "CCCCCN1C(=O)/C(=C/NC2CCCCC2)C(=O)c2cc(Cl)cc(C)c21", "Property Measured": "pIC50", "Limit Operator": "=", "Endpoint Result": 5.83}
{"Input Smiles": "CCCCCN1C(=O)/C(=C/NC2CCCCC2)C(=O)c2cc(Br)ccc21", "Property Measured": "pIC50", "Limit Operator": "=", "Endpoint Result": 5.77}
{"Input Smiles": "CCCCCCN1C(=O)/C(=C/NC2CCCCC2)C(=O)c2cc(OC)ccc21", "Property Measured": "pIC50", "Limit Operator": "<", "Endpoint Result": 5.00}

----------
# pEC50 listing for each entry below
- Target Or System: Cannabinoid receptor 2 (Homo sapiens)
- Sequence (P34972 whole entry): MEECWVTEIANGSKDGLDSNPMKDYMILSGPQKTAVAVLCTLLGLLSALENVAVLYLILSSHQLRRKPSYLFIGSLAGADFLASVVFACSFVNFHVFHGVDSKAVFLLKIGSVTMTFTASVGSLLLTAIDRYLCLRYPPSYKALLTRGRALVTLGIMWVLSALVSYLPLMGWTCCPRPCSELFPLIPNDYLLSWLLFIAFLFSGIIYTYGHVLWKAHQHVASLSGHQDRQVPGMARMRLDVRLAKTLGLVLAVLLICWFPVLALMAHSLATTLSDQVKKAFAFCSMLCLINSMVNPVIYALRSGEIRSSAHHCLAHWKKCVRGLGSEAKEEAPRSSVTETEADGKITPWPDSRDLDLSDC
- Test: Agonist activity at CB2R (unknown origin) CHO cells stably expressing Galpha16 assessed as increase in intracellular calcium level by microplate reader based assay
- Type: functional, cell-based
- Recorded Conditions: read-out: EC50
pEC50: −log10 of the molar value.
Property Measured: pEC50

{"Compound": "CCCCN1C(=O)/C(=C/NC(C)C(C)C)C(=O)c2cccc(C)c21 (configuration not stated)", "Property Measured": "pEC50", "Limit Operator": "=", "Endpoint Result": 7.08}
{"Compound": "CCCCN1C(=O)/C(=C/NC2CC2)C(=O)c2cccc(C)c21", "Property Measured": "pEC50", "Limit Operator": "=", "Endpoint Result": 6.30}
{"Compound": "CCCCN1C(=O)/C(=C/NC2CCCC2)C(=O)c2cccc(C)c21", "Property Measured": "pEC50", "Limit Operator": "=", "Endpoint Result": 7.24}
{"Compound": "CCCCN1C(=O)/C(=C/NCCC)C(=O)c2cccc(C)c21", "Property Measured": "pEC50", "Limit Operator": "<", "Endpoint Result": 5.00}
{"Compound": "O=C(NCC1CCOCC1)c1cnc(Nc2ccc(Cl)cc2Cl)nc1C(F)(F)F [GW842166X]", "Property Measured": "pEC50", "Limit Operator": "=", "Endpoint Result": 6.36}
{"Compound": "CCN1C(=O)/C(=C/NC2CCCCC2)C(=O)c2cccc(C)c21", "Property Measured": "pEC50", "Limit Operator": "=", "Endpoint Result": 4.75}
{"Compound": "CCCCN1C(=O)/C(=C/NC(CC)CC)C(=O)c2cccc(C)c21", "Property Measured": "pEC50", "Limit Operator": "=", "Endpoint Result": 6.95}
{"Compound": "CCCCN1C(=O)/C(=C/NCc2cccnc2)C(=O)c2cccc(C)c21", "Property Measured": "pEC50", "Limit Operator": "<", "Endpoint Result": 5.00}
{"Compound": "CCCCN1C(=O)/C(=C/NC2CCCCC2)C(=O)c2cccc(Cl)c21", "Property Measured": "pEC50", "Limit Operator": "<", "Endpoint Result": 5.00}
{"Compound": "CCCN1C(=O)/C(=C/NC2CCCCC2)C(=O)c2cccc(C)c21", "Property Measured": "pEC50", "Limit Operator": "=", "Endpoint Result": 6.30}
{"Compound": "CCCCN1C(=O)/C(=C/NCc2ccc(F)cc2)C(=O)c2cccc(C)c21", "Property Measured": "pEC50", "Limit Operator": "<", "Endpoint Result": 5.00}
{"Compound": "CCCCCN1C(=O)/C(=C/NC2CCCCC2)C(=O)c2c(OC)cccc21", "Property Measured": "pEC50", "Limit Operator": "<", "Endpoint Result": 5.00}
{"Compound": "CCCCCN1C(=O)/C(=C/NC2CCCCC2)C(=O)c2ccccc21", "Property Measured": "pEC50", "Limit Operator": "=", "Endpoint Result": 6.33}
{"Compound": "CCCCN1C(=O)/C(=C/NC2CCCCC2)C(=O)c2cccc(OC)c21", "Property Measured": "pEC50", "Limit Operator": "=", "Endpoint Result": 5.85}
{"Compound": "CCCCN1C(=O)/C(=C/NC2CCCCC2)C(=O)c2c(C)cccc21", "Property Measured": "pEC50", "Limit Operator": "=", "Endpoint Result": 6.47}
{"Compound": "CCCCN1C(=O)/C(=C/NN2CCOCC2)C(=O)c2cccc(C)c21", "Property Measured": "pEC50", "Limit Operator": "=", "Endpoint Result": 6.32}
{"Compound": "CCCCN1C(=O)/C(=C/NC(C)C)C(=O)c2cccc(C)c21", "Property Measured": "pEC50", "Limit Operator": "<", "Endpoint Result": 5.00}
{"Compound": "CCCCN1C(=O)/C(=C/NC(C)(C)C)C(=O)c2cccc(C)c21", "Property Measured": "pEC50", "Limit Operator": "=", "Endpoint Result": 7.70}
{"Compound": "CCCCN1C(=O)/C(=C/NCC2CCC2)C(=O)c2cccc(C)c21", "Property Measured": "pEC50", "Limit Operator": "=", "Endpoint Result": 6.66}
{"Compound": "CCCCCN1C(=O)/C(=C/NC2CCCCC2)C(=O)c2cccc(OC)c21", "Property Measured": "pEC50", "Limit Operator": "<", "Endpoint Result": 5.00}
{"Compound": "CCCCN1C(=O)/C(=C/NC(C)(C)CO)C(=O)c2cccc(C)c21", "Property Measured": "pEC50", "Limit Operator": "=", "Endpoint Result": 7.38}
{"Compound": "CCCCN1C(=O)/C(=C/NC(C)CCC)C(=O)c2cccc(C)c21 (configuration not stated)", "Property Measured": "pEC50", "Limit Operator": "=", "Endpoint Result": 6.94}

Where do these numbers come from? They come from ChEMBL document CHEMBL3588836.
